test: Binding affinity to cupric ion assessed as accounting ratio by measuring total compound detected/total compound adsorbed at 2.55 umol by immobilized metal-ion affinity chromatography; settings: dose 2.55 µmol
Class key for Ratio values: low value: < 0.2; medium value: ≥ 0.2 and < 1; high value: ≥ 1

molecule.smiles: Cc1[nH]c2ccccc2c1CCNCc1ccc(/C=C/C(=O)NO)cc1
class.assignment: medium value

molecule.smiles: Nc1ccccc1NC(=O)c1ccc(CNC(=O)OCc2cccnc2)cc1
class.assignment: medium value

molecule.smiles: O=C(CCCCCCC(=O)Nc1ccccc1)NO
class.assignment: low value

molecule.smiles: C[C@H](CSC(=O)c1ccccc1)C(=O)N1C[C@@H](Sc2ccccc2)C[C@H]1C(=O)O
class.assignment: high value

molecule.smiles: CC1(C)Cc2c(-c3ccccc3)c(-c3ccc(Cl)cc3)c(CC(=O)O)n2C1
class.assignment: high value

molecule.smiles: COc1c(N2C[C@@H]3CCCN[C@@H]3C2)c(F)cc2c(=O)c(C(=O)O)cn(C3CC3)c12
class.assignment: medium value

molecule.smiles: O=c1cccccc1O
class.assignment: high value

molecule.smiles: Cc1ccc(Cl)c(Nc2ccccc2C(=O)O)c1Cl
class.assignment: high value

Let us examine a further case.
## Task Which Ratio band matches `C[C@H](CS)C(=O)N1CCC[C@H]1C(=O)O` ?
## Result low value

----------
assay: Binding affinity to zinc ion assessed as accounting ratio by measuring total compound detected/total compound adsorbed at 2.55 umol by immobilized metal-ion affinity chromatography; settings: dose 2.55 µmol
Think of 1 as a floor: if Ratio stands on it or above, it is 1; beneath it, -1.

Some solved entries appear below for comparison.
molecule.smiles: COc1c(N2C[C@@H]3CCCN[C@@H]3C2)c(F)cc2c(=O)c(C(=O)O)cn(C3CC3)c12
class.assignment: 1
//
molecule.smiles: NCCCC[C@H](N[C@@H](CCc1ccccc1)C(=O)O)C(=O)N1CCC[C@H]1C(=O)O
class.assignment: -1
//
molecule.smiles: O=C(O)c1cc(/N=N/c2ccc(S(=O)(=O)Nc3ccccn3)cc2)ccc1O
class.assignment: -1
//
molecule.smiles: Cc1ccc(Cl)c(Nc2ccccc2C(=O)O)c1Cl
class.assignment: -1
//
molecule.smiles: C[C@H](CSC(=O)c1ccccc1)C(=O)N1C[C@@H](Sc2ccccc2)C[C@H]1C(=O)O
class.assignment: 1
//
molecule.smiles: C[C@H](CS)C(=O)N1CCC[C@H]1C(=O)O
class.assignment: 1

## Task Can `O=c1cccccc1O` be said to have Ratio at or above 1?
## Result -1

## Task Can `O=C(/C=C/c1cccc(S(=O)(=O)Nc2ccccc2)c1)NO` be said to have Ratio at or above 1?
## Result 1

## Task Can `Nc1ccc(C(=O)O)c(O)c1` be said to have Ratio at or above 1?
## Result -1

## Task Can `O=C(CCCCCCC(=O)Nc1ccccc1)NO` be said to have Ratio at or above 1?
## Result 1

## Task Can `O=C(N[C@H]1CCS[C@H]2CCC[C@@H](C(=O)O)N2C1=O)[C@@H](S)Cc1ccccc1` be said to have Ratio at or above 1?
## Result 1

## Task Can `Cc1[nH]c2ccccc2c1CCNCc1ccc(/C=C/C(=O)NO)cc1` be said to have Ratio at or above 1?
## Result -1

## Task Can `CC1(C)Cc2c(-c3ccccc3)c(-c3ccc(Cl)cc3)c(CC(=O)O)n2C1` be said to have Ratio at or above 1?
## Result 1

## Task Can `Nc1ccccc1NC(=O)c1ccc(CNC(=O)OCc2cccnc2)cc1` be said to have Ratio at or above 1?
## Result -1

----------
test: Binding affinity to Zinc ion assessed as performance ratio ratio by measuring product of accounting ratio and retention ratio at 2.55 umol by immobilized metal-ion affinity chromatography; conditions: dose 2.55 µmol
Think of 0.01 as a floor: if Ratio stands on it or above, it is Satisfied; beneath it, Not satisfied.

Some solved entries appear below for comparison.
molecule.smiles: O=C(/C=C/c1cccc(S(=O)(=O)Nc2ccccc2)c1)NO
class.assignment: Satisfied
--
molecule.smiles: CC1(C)Cc2c(-c3ccccc3)c(-c3ccc(Cl)cc3)c(CC(=O)O)n2C1
class.assignment: Satisfied
--
molecule.smiles: O=C(O)c1cc(/N=N/c2ccc(S(=O)(=O)Nc3ccccn3)cc2)ccc1O
class.assignment: Satisfied

## Task Can `Cc1[nH]c2ccccc2c1CCNCc1ccc(/C=C/C(=O)NO)cc1` be said to have Ratio at or above 0.01?
## Result Satisfied

## Task Can `C[C@H](CS)C(=O)N1CCC[C@H]1C(=O)O` be said to have Ratio at or above 0.01?
## Result Satisfied

## Task Can `O=C(N[C@H]1CCS[C@H]2CCC[C@@H](C(=O)O)N2C1=O)[C@@H](S)Cc1ccccc1` be said to have Ratio at or above 0.01?
## Result Satisfied

## Task Can `COc1c(N2C[C@@H]3CCCN[C@@H]3C2)c(F)cc2c(=O)c(C(=O)O)cn(C3CC3)c12` be said to have Ratio at or above 0.01?
## Result Satisfied

## Task Can `NCCCC[C@H](N[C@@H](CCc1ccccc1)C(=O)O)C(=O)N1CCC[C@H]1C(=O)O` be said to have Ratio at or above 0.01?
## Result Not satisfied

## Task Can `Cc1ccc(Cl)c(Nc2ccccc2C(=O)O)c1Cl` be said to have Ratio at or above 0.01?
## Result Not satisfied

## Task Can `CC(=O)Nc1ccc(C(=O)Nc2ccccc2N)cc1` be said to have Ratio at or above 0.01?
## Result Not satisfied

## Task Can `Nc1ccc(C(=O)O)c(O)c1` be said to have Ratio at or above 0.01?
## Result Not satisfied

## Task Can `O=c1cccccc1O` be said to have Ratio at or above 0.01?
## Result Satisfied

## Task Can `O=C(CCCCCCC(=O)Nc1ccccc1)NO` be said to have Ratio at or above 0.01?
## Result Satisfied

----------
test: Binding affinity to Nickel cation assessed as accounting ratio by measuring total compound detected/total compound adsorbed at 2.55 umol by immobilized metal-ion affinity chromatography; conditions: dose 2.55 µmol
Think of 0.7 as a floor: if Ratio stands on it or above, it is yes (1); beneath it, no (0).

## Task Can `C[C@H](N[C@@H](CCc1ccccc1)C(=O)O)C(=O)N1CCC[C@H]1C(=O)O` be said to have Ratio at or above 0.7?
## Result yes (1)

----------
assay: Binding affinity to cupric ion assessed as performance ratio ratio by measuring product of accounting ratio and retention ratio at 2.55 umol by immobilized metal-ion affinity chromatography; conditions: dose 2.55 µmol
As shown below, each of these compounds has a reported Ratio value.

Look over these answered cases.
molecule.smiles: C[C@H](N[C@@H](CCc1ccccc1)C(=O)O)C(=O)N1CCC[C@H]1C(=O)O
result: 0
//
molecule.smiles: CC1(C)Cc2c(-c3ccccc3)c(-c3ccc(Cl)cc3)c(CC(=O)O)n2C1
result: 0
//
molecule.smiles: Nc1ccc(C(=O)O)c(O)c1
result: 0
//
molecule.smiles: O=C(CCCCCCC(=O)Nc1ccccc1)NO
result: 0.08
//
molecule.smiles: COc1c(N2C[C@@H]3CCCN[C@@H]3C2)c(F)cc2c(=O)c(C(=O)O)cn(C3CC3)c12
result: 0.24
//
molecule.smiles: Cc1[nH]c2ccccc2c1CCNCc1ccc(/C=C/C(=O)NO)cc1
result: 0.25

## Task Given `O=C(O)c1cc(/N=N/c2ccc(S(=O)(=O)Nc3ccccn3)cc2)ccc1O` , respond with its Ratio.
## Result 0.63

## Task Given `CC(=O)Nc1ccc(C(=O)Nc2ccccc2N)cc1` , respond with its Ratio.
## Result 0

## Task Given `NCCCC[C@H](N[C@@H](CCc1ccccc1)C(=O)O)C(=O)N1CCC[C@H]1C(=O)O` , respond with its Ratio.
## Result 0

## Task Given `O=c1cccccc1O` , respond with its Ratio.
## Result 1.26

## Task Given `O=C(/C=C/c1cccc(S(=O)(=O)Nc2ccccc2)c1)NO` , respond with its Ratio.
## Result 0.13

## Task Given `C[C@H](CS)C(=O)N1CCC[C@H]1C(=O)O` , respond with its Ratio.
## Result 0

## Task Given `O=C(N[C@H]1CCS[C@H]2CCC[C@@H](C(=O)O)N2C1=O)[C@@H](S)Cc1ccccc1` , respond with its Ratio.
## Result 0

## Task Given `Cc1ccc(Cl)c(Nc2ccccc2C(=O)O)c1Cl` , respond with its Ratio.
## Result 0

## Task Given `C[C@H](CSC(=O)c1ccccc1)C(=O)N1C[C@@H](Sc2ccccc2)C[C@H]1C(=O)O` , respond with its Ratio.
## Result 0

## Task Given `Nc1ccccc1NC(=O)c1ccc(CNC(=O)OCc2cccnc2)cc1` , respond with its Ratio.
## Result 0.01

----------
experiment: Binding affinity to Gallium ion assessed as performance ratio ratio by measuring product of accounting ratio and retention ratio at 2.55 umol by immobilized metal-ion affinity chromatography; conditions: dose 2.55 µmol
experimental.endpoint: Ratio
Would you mind answering with just the numeric figure?

Look over these answered cases.
molecule.smiles: C[C@H](CSC(=O)c1ccccc1)C(=O)N1C[C@@H](Sc2ccccc2)C[C@H]1C(=O)O
Ratio: 0.01

molecule.smiles: Nc1ccccc1NC(=O)c1ccc(CNC(=O)OCc2cccnc2)cc1
Ratio: 0.01

molecule.smiles: Cc1[nH]c2ccccc2c1CCNCc1ccc(/C=C/C(=O)NO)cc1
Ratio: 0

molecule.smiles: NCCCC[C@H](N[C@@H](CCc1ccccc1)C(=O)O)C(=O)N1CCC[C@H]1C(=O)O
Ratio: 0

Now look at this entry.
## Task Given `O=C(CCCCCCC(=O)Nc1ccccc1)NO` , respond with its Ratio.
## Result 0.41
